assaySystem: T1, human CLDN6 fused to GFP, expressed on engineered HEK293T cells (HEK293T-CLDN6-mGFP) (human, UniProt P56747 1-220)
T1 construct: It calls residues 1-21 a signal peptide; also called Claudin-6; HEK293T-CLDN6-mGFP Artificial CLDN6+; not shown: mGFP tag
T1 sequence: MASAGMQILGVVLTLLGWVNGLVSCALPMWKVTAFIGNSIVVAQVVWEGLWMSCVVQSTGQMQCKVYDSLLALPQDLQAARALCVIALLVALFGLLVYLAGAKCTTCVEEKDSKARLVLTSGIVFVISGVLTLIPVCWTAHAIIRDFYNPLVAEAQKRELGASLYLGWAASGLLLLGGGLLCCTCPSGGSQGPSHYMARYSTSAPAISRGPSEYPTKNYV
assayExplanation: FACS, AF647-labelled mAb, HEK293T-CLDN6-mGFP cells
quantityMeasured: EC50
Write the numeric value and follow it with the unit.

What measured EC50 goes with AB6 (antibody, V domains shown, Labelled with Alexa Fluor 647 NHS ester for FACS) VH: DVQLQESGPGLVKSSQSLSLTCSVTGYSITSGYYWKWIRQFPGNKLEWMGYISYDGGINYNPSLKNRISITRDTSKNQFFLKLNSVTTEDTAKYYCARFGKGAMDYWGQGTSVTVSS VL: AIVMFQSPSSLVVSAGEKVTMSCKSSQSLLNSRTRKNYLAWYQQKPGQSPKLLIYWASTRESGVPDRFTGSGSGTDFTLTISSVQAEDLAVYYCKQSYYLYTFGGGTKLEIK ?
1430 nM
